Target: Human pyruvate kinase R (PKR) (Homo sapiens, UniProt P30613)
Construct: Human pyruvate kinase R (PKR), residues 14-574; 6x-His (N, cleaved yes); 8x-Arg (N, cleaved yes); SUMO (N, cleaved yes); host or cells: E. coli
Sequence (P30613 14-574): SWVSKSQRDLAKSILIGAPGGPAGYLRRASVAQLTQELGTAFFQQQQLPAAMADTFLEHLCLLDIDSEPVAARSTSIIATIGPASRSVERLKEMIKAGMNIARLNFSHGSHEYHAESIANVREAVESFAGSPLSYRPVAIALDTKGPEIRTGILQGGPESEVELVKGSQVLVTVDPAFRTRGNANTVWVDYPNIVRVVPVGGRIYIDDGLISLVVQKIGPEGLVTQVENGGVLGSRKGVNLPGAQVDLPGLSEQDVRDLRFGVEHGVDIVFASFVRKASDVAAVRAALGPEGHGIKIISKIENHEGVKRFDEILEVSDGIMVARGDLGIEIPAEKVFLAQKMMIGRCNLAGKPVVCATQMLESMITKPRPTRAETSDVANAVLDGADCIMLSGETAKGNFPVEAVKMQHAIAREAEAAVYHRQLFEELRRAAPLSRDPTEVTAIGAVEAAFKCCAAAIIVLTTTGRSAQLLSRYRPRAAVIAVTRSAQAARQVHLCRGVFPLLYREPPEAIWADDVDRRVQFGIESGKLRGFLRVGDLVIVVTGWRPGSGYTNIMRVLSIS
Test: Biochemical assay for activation of pyruvate kinase R (Kinase-Glo luminescence measurement of ATP generation)
Details: maximal activation level relative to the activation level achieved by the literature compound AG-348 @ 10 μM
value.type: Emax (%)

>  <molecule>
Cc1nc(CNC(=O)NCc2ncnn2-c2cnc3ccccc3c2)n(-c2ccc(Cl)c(F)c2)n1 [Compound 126]

>  <recorded.result>
84

$$$$
>  <molecule>
O=C(NCc1ncnn1-c1ccc(Cl)c(F)c1)N(CCF)Cc1ncnn1-c1ccc(Cl)c(F)c1 [Compound 38]

>  <recorded.result>
53

$$$$

P: COc1ccc(-n2ncnc2CNC(=O)NCc2ncnn2-c2ccc(OC)nc2)cn1 [Compound 117]
Q: O=C(NCc1nnnn1-c1ccc(Cl)c(F)c1)NCc1nnnn1-c1ccc(Cl)c(F)c1 [Compound 63]
Between these two entries, P and Q , state which has the higher Emax. Identify your pick by its label.
Q
